Where these numbers come from: patent US11872221B2

PROTOCOL DETAILS: Phase 1 drug-drug interaction study, plasma pharmacokinetics of dorzagliatin and sitagliptin
Assay type: in vivo, human
STUDY CONDITIONS: human, plasma, oral; T2DM subjects; sitagliptin 100 mg QD in combination with dorzagliatin 75 mg BID (Day 10); read-out: Least squares geometric mean Cmax of plasma sitagliptin
Experimental: This phase I study accessed the pharmacokinetic interaction between dorzagliatin and sitagliptin in T2DM subjects. This study also evaluated the safety and tolerability of dorzagliatin with simultaneous administration of sitagliptin in T2DM subjects. […] The plasma concentration-time data for dorzagliatin and sitagliptin were analyzed using noncompartmental methods to calculate pharmacokinetic parameters.
MEASURED PROPERTY: Cmax (ng/mL)
Only the number, expressed in ng/mL, is required.

q: Quick one: Cmax of N[C@@H](CC(=O)N1CCn2c(nnc2C(F)(F)F)C1)Cc1cc(F)c(F)cc1F ?
a: 403
